- Tested on: MCF7
- experimentalProtocol: Cytotoxicity against human MCF7 cells
- Format: functional
measuredProperty: ED50

CCCCCCCCCCCC[C@@H](O)[C@H]1CC[C@H]([C@H](O)CCCCCC[C@H](O)CCCCCCCC2=C[C@H](C)OC2=O)O1; 5.8 ×10⁻⁷ ug/ml
CCCCCCCCCC[C@@H](O)[C@H]1CC[C@@H]([C@H]2CC[C@H]([C@H](O)CCCCCCCCCC[C@@H]3CC(CC(C)=O)C(=O)O3)O2)O1 (mixture of isomers); 1.3 ×10⁻⁸ ug/ml
CCCCCCCCCC[C@@H](O)[C@H]1CC[C@H]([C@H]2CC[C@H]([C@H](O)CCCCCCCC[C@@H](O)CCCC3=C[C@H](C)OC3=O)O2)O1; 2.5 ×10⁻⁷ ug/ml

Lookup: Given CCCCCCCCCC[C@H](O)[C@H]1CC[C@H]([C@H](O)CC[C@H](O)[C@@H]2CC[C@@H](CCCCC[C@@H](O)CC3=C[C@H](C)OC3=O)O2)O1 , state its recorded ED50.
Found: 1.6 ×10⁻⁷ ug/ml

Lookup: // lookup ED50 for CCCCCCCCCC[C@H](O)[C@@H](O)CCCC[C@H]1CC[C@H]([C@H]2CC[C@H]([C@H](O)CCCCC[C@@H](O)CC3=C[C@H](C)OC3=O)O2)O1 (stereo in doubt; 21) [GLACIN B]
Found: 5.2 ×10⁻² ug/ml

###

- Tested on: U-251
- experimentalProtocol: Cytotoxicity against human U251 cells
- Assay type: functional, cell-based
measuredProperty: IC50

Lookup: Entry CCCCCCCCCC[C@@H](O)[C@@H]1CC[C@@H]([C@@H]2CC[C@@H]([C@@H](O)CCCCC(=O)CCCCCCCC3=C[C@H](C)OC3=O)O2)O1 : reported IC50 = ?
Found: 1.5 nM

###

- Tested on: MCF7
- experimentalProtocol: Cytotoxicity against human MCF7 cells
- Type: functional
measuredProperty: ED50

CCCCCCCCCC[C@H](O)[C@H](O)CCCC[C@H]1CC[C@H]([C@H]2CC[C@H]([C@H](O)CCCCC[C@@H](O)CC3=C[C@H](C)OC3=O)O2)O1 [GLABRACIN A]; 4.2 ×10⁻⁶ ug/ml

Lookup: // query ED50 value for entry CCCCCCCCCC[C@@H](O)[C@H]1CC[C@@H]([C@H]2CC[C@H]([C@H](O)CCCC[C@H](O)CCCCC[C@@H](O)CC3=C[C@H](C)OC3=O)O2)O1
Found: 1.9 ×10⁻⁸ ug/ml

Lookup: Query: ED50; subject: CCCCCCCCCC[C@H](O)[C@@H](O)CCCC[C@H]1CC[C@H]([C@H]2CC[C@H]([C@H](O)CCCCC[C@@H](O)CC3=C[C@H](C)OC3=O)O2)O1 (stereo in doubt) [GLACIN B]
Found: 1.8 ×10⁻³ ug/ml

###

- experimentalProtocol: Toxicity in brine shrimp
- Format: organism-based
- measurementConditions: artemia, in vivo
Returns: string. Value is class 1 if measured LC50 is below 0.4 µg/mL, and class 0 if it is greater than or equal to it.

CCCCCCCCCCCC[C@H]1O[C@@H]([C@H](O)CCCC[C@H](O)CCCCC[C@@H](O)CC2=C[C@H](C)OC2=O)CC[C@H]1O; class 1
CCCCCCCCCCCCCCCC[C@@H](O)[C@H]1CC[C@H]([C@H](O)CC[C@H](O)CCCCC[C@@H](O)CC2=C[C@H](C)OC2=O)O1; class 1
CCCCCCCCCCCC[C@@H](O)[C@H]1CC[C@H]([C@H](O)CCCCCC[C@H](O)CCCCC[C@@H]2CC(CC(C)=O)C(=O)O2)O1 (mixture of isomers); class 1
CCCCCCCCCCCC[C@@H](O)[C@@H](O)CC[C@H](O)[C@@H]1CC[C@@H](C[C@@H](O)C[C@@H](O)CCC[C@@H](O)CC2=C[C@H](C)OC2=O)O1; class 0
CCCCCCCCCCCC[C@@H](O)[C@H]1CC[C@H]([C@H](O)CCCCC[C@@H](O)CCCCCC[C@@H]2CC(CC(C)=O)C(=O)O2)O1 (mixture of isomers); class 0

Lookup: I wonder whether CCCCCCCCCCCC[C@@H](O)[C@H]1CC[C@H]([C@H](O)CCCCCC[C@H](O)CCCCCCCC2=C[C@H](C)OC2=O)O1 has LC50 below 0.4 µg/mL. Can you tell?
Found: class 1

Lookup: hey, is LC50 for CCCCCCCCCCCC[C@@H](O)[C@H]1CC[C@H]([C@H](O)CCCC(O)C(O)CCCCC[C@@H]2CC(CC(C)=O)C(=O)O2)O1 (stereo not given in full) lower than 0.4 µg/mL or not?
Found: class 0

Lookup: Regarding CCCCCCCCCCCC[C@H](O)[C@@H](O)CC[C@H](O)[C@@H]1CC[C@@H](C[C@H](O)CCCCC[C@@H](O)CC2=C[C@H](C)OC2=O)O1 , kindly confirm whether its LC50 is beneath 0.4 µg/mL.
Found: class 1

Lookup: Please let me know if CCCCCCCCCCCC[C@@H](O)[C@H]1CC[C@H]([C@H](O)CCC(O)CCCC(O)CCC[C@@H](O)CC2=C[C@H](C)OC2=O)O1 (stereo not given in full) shows LC50 below 0.4 µg/mL.
Found: class 0

Lookup: Confirm or reject: LC50 of CCCCCCCCCCCCCC[C@H]1O[C@@H]([C@H](O)CC[C@H](O)CCCCC[C@@H](O)CC2=C[C@H](C)OC2=O)CC[C@H]1O lies strictly below 0.4 µg/mL
Found: class 0

Lookup: hey, is LC50 for CCCCCCCCCCCC[C@H](O)[C@H]1CC[C@H]([C@H](O)CCCC[C@H](O)CCCCCCC[C@@H](O)CC2=C[C@H](C)OC2=O)O1 lower than 0.4 µg/mL or not?
Found: class 0

Lookup: In the record for CCCCCCCCCCCC/C=C\CC[C@@H](O)[C@H]1CC[C@H]([C@H](O)CC[C@H](O)CCCCC[C@H]2CC(CC(C)=O)C(=O)O2)O1 (mixture of isomers) , is LC50 less than 0.4 µg/mL?
Found: class 1

Lookup: Consider CCCCCCCCCC/C=C\CC[C@@H](O)[C@H]1CC[C@H]([C@H](O)CCCCCC(=O)CCCC[C@@H]2CC(CC(C)=O)C(=O)O2)O1 (stereo not given in full) . Does its LC50 lie strictly below 0.4 µg/mL?
Found: class 0

Lookup: A record lists CCCCCCCCCCCC[C@H](O)[C@@H]1CC[C@H]([C@H](O)CCCCCC(O)CCCCCCC2=C[C@H](C)OC2=O)O1 (stereo not given in full) . Is its LC50 below 0.4 µg/mL?
Found: class 0

Lookup: Report whether reported LC50 is lower than 0.4 µg/mL (strictly) for CCCCCCCCCCCCCC[C@H](O)CCCCCCC[C@H](O)CCCCC[C@@H](O)CC1=C[C@H](C)OC1=O
Found: class 0

The reported measurements were obtained from ChEMBL document CHEMBL1141818.
